- assayProtocol: Stability against degradation by ozone of printed patches
- Format: physicochemical
- Set-up: key: A: excellent; B: good; C: satisfactory; D: unsatisfactory
- conditionInfo: C: ILFORD Galerie Smooth Glossy (nanoporous); ozone 1 ppm, 30° C., 50% relative humidity
- Procedure: The present invention, as far as it relates to recording liquids, is illustrated by the following examples using the disazo dyes of Table 1 according to the invention and dyes representing the state of the art. […] The dye quantity was adjusted in such a way that the optical density of the printed image was similar for all dyes. […] The optical density of the colored square patches was measured with a Spectrolino® densitometer. […] After storage, the samples were re-measured. […]
reportedEndpoint: Resistance against Degradation by Ozone (Class) on Recording Sheet C

CN(CCS(=O)(=O)[O-])c1nc(Nc2ccc(N=Nc3cc(S(=O)(=O)[O-])c4cccc(S(=O)(=O)[O-])c4c3)cc2)nc(Nc2ccc(N=Nc3cc(S(=O)(=O)[O-])c4cccc(S(=O)(=O)[O-])c4c3)cc2)n1.[Na+].[Na+].[Na+].[Na+].[Na+]; A
O=S(=O)([O-])c1cc(/N=N/c2ccc(Nc3nc(NCCO)nc(Nc4ccc(/N=N/c5cc(S(=O)(=O)[O-])c6cccc(S(=O)(=O)[O-])c6c5)cc4)n3)cc2)cc2c(S(=O)(=O)[O-])cccc12.[Na+].[Na+].[Na+].[Na+] [Dye No. I, reference compound]; A
O=S(=O)([O-])CCCSc1nc(Nc2ccc(N=Nc3ccc4cc(S(=O)(=O)[O-])cc(S(=O)(=O)[O-])c4c3)cc2)nc(Nc2ccc(N=Nc3ccc4cc(S(=O)(=O)[O-])cc(S(=O)(=O)[O-])c4c3)cc2)n1.[Na+].[Na+].[Na+].[Na+].[Na+]; B
CN(CCS(=O)(=O)[O-])c1nc(Nc2ccc(N=Nc3ccc4cc(S(=O)(=O)[O-])cc(S(=O)(=O)[O-])c4c3)cc2)nc(Nc2ccc(N=Nc3ccc4cc(S(=O)(=O)[O-])cc(S(=O)(=O)[O-])c4c3)cc2)n1.[Na+].[Na+].[Na+].[Na+].[Na+]; B
Cc1cc(Nc2nc(NCCO)nc(Nc3ccc(/N=N/c4cc(S(=O)(=O)[O-])c5cccc(S(=O)(=O)[O-])c5c4)c(C)c3)n2)ccc1/N=N/c1cc(S(=O)(=O)[O-])c2cccc(S(=O)(=O)[O-])c2c1.[Na+].[Na+].[Na+].[Na+] [Dye No. II, Direct Yellow 86, reference compound]; A

Now, please, on to the next compound.
Q: Endpoint output: Resistance against Degradation by Ozone (Class) on Recording Sheet C of O=S(=O)([O-])CCNc1nc(Nc2ccc(N=Nc3ccc4cc(S(=O)(=O)[O-])cc(S(=O)(=O)[O-])c4c3)cc2)nc(Nc2ccc(N=Nc3ccc4cc(S(=O)(=O)[O-])cc(S(=O)(=O)[O-])c4c3)cc2)n1.[Na+].[Na+].[Na+].[Na+].[Na+] . Value?
Result: A
